Cited source: ChEMBL document CHEMBL3232996

measurement description: Fraction unbound in iv dosed C57Bl/6JRccHsd mouse plasma measured at 160 mins
Type: ADME, organism-based
measurement type: fraction unbound at 160 min

INSERT INTO assay_data (entry_smiles, test_result) VALUES
  ('N#C[C@@H]1CCCN1C(=O)[C@@H]1CCCN1C(=O)CCCc1ccc([123I])cc1', 0.26);

###

measurement description: Biodistribution in left brain hemisphere of iv dosed C57BL/6JRccHsd mouse LPS-induced acute neuroinflammation model dosed 24 hrs after LPS challenge and measured at 80 mins post dose
Format: ADME, organism-based
run parameters: read-out: Drug uptake
measurement type: tissue uptake at 80 min (%ID/g)

INSERT INTO measurements (entry_smiles, measurement_type, test_result) VALUES
  ('N#C[C@@H]1CCCN1C(=O)[C@@H]1CCCN1C(=O)CCCc1ccc([123I])cc1', 'tissue uptake at 80 min', 1.34);
